Values from PubChem BioAssay

assay-details: E. coli acrAB mutant growth effects, primary screen, E. coli filamentation inducers, strain DRC39, OD650, 24 h (AID 1178);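 note: growth measured as culture turbidity by optical density at 650 nm; test concentration not given here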
setup-conditions: higher = more signal, called active from +8 up or from −8 down
Calls of active or inactive are those of the source.

compound | z-score
CC(CCN1CCCCc2nc(C)c(C)cc21)=NO[C@H](C)c1cn([C@@H]2COC[C@H]2O)nn1 | 0.715 (inactive)
CCN1C(C)=C(C(=O)OC)[C@@H](c2ccccc2)N2C(=O)[C@](O)(C(=O)OC)CC(C(C)=O)=C12 | 0.538 (inactive)
CC(C)=NO[C@H](C)c1cn([C@@H]2COC[C@H]2O)nn1 | 0.504 (inactive)
COC(=O)[C@H](C)NC(=O)CCC1CC(OC(=O)NCc2ccc3c(c2)OCO3)CC2(CCCC(COC(=O)NCCCN3CCCC3=O)O2)O1 (some centres undefined) | 0.7 (inactive)

* * *

assay-details: MM1S cell viability effects, profiling panel, calcein-AM fluorescence, 48 h, basal (AID 1165);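 note: viability of MM1S multiple myeloma cells under basal unstimulated conditions; test concentration not given here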
setup-conditions: higher = more signal
Rule: z-score of -1 or more gives met; anything lower gives not met.

molecule | category-label
CCCC[C@H]1CN2[C@@H](CC[C@@H](C)[C@@H]2c2ccc(Br)cc2)C(=O)O1 | met
CC(C)CON=C1C[C@@H](O)[C@@H](O)[C@@H]2[C@@H]3C(=O)N([C@@H](C)c4ccccc4)C(=O)[C@@H]3CC[C@@H]12 | met
CCOC(=O)CCN1C(=O)[C@H]2[C@H]3[C@H](O)[C@H](O)CC(=NO[C@@H]4O[C@H](CO)[C@@H](O)[C@H](O)[C@H]4O)[C@H]3CC[C@H]2C1=O | met
CC(CCN1CCc2nc(-c3ccccc3)c(-c3ccccc3)cc2C1)=NO[C@@H](C)c1cc(-c2c(C)cc(C)cc2C)no1 | met
CCOC(=O)[C@H](CC(C)C)NC(=O)CCC1CC(OC(=O)NCCc2ccc(F)cc2)CC2(CCCC(COC(=O)NCCOC)O2)O1 (stereo not given in full) | met
COc1cccc([C@H]2Oc3ccc(OC)cc3C(=NO[C@@H](C)c3cc(-c4c(C)cc(C)cc4C)no3)[C@@H]2O)c1 | not met
CCN1C(=O)[C@H]2[C@H]3[C@H](O)[C@H](O)CC(=NO[C@@H]4O[C@H](CO)[C@@H](O)[C@H](O)[C@H]4O)[C@H]3CC[C@H]2C1=O | met
C=CC[C@@H]1C=C[C@H](ON=C2C[C@@H](O)[C@@H](O)[C@@H]3[C@@H]4C(=O)N(CC)C(=O)[C@@H]4CC[C@@H]23)[C@@H](CO)O1 | not met
CON=C(C)CCN1CCCCc2nc(C)c(C)cc21 | met
C[C@H]1CC[C@H]2C(=O)O[C@H](CO)CN2[C@@H]1c1ccc(Br)cc1 | met
COc1ccc(COC(=O)NN=C2C[C@@H](O)[C@@H](O)[C@@H]3[C@@H]4C(=O)N(C5CCCCC5)C(=O)[C@@H]4CC[C@@H]23)cc1 | met
COC(=O)[C@H](C)NC(=O)CCC1CC(OC(=O)NCc2cccc3ccccc23)CC2(CCCC(COC(=O)NCc3cccc(C(F)(F)F)c3)O2)O1 (stereo not given in full) | not met
CC(C)(C)N1C(=O)[C@H]2[C@H]3[C@H](O)[C@H](O)CC(=NNC(=O)OCc4ccccc4)[C@@H]3CC[C@H]2C1=O | met
C=CC[C@@H]1C=C[C@H](Oc2ccc(C)cc2)[C@@H](COC(=O)NCc2cccc3ccccc23)O1 | not met
COc1ccc(-c2cnnc(CCCn3ccnc3-c3ccccc3)n2)cc1 | not met
